Measured values drawn from patent EP2161266A1 for this set.

- test_target: UniProt:O43613
- assay_details: Ca2+-flux assay for IC50 determination in CHO-hOX1R cells (Orexin-A stimulated)
- settings: 5nM Orexin-A agonist, fluo-4 fluorescence, compounds 1.28nM to 20µM, triplicates, read-out: 0X1
Reported IC50 values for a set of compounds

Below: 8 compounds and their reported IC50.
1. CCN(CC)c1ccc(NC(=O)c2oc3ccccc3c2NC(C)=O)cc1 < 3 µM
2. CCc1c(C(=O)Nc2ccc(N(CC)CC)cc2)oc2ccccc12 < 0.3 µM
3. Cc1nc2ccc(NC(=O)c3oc4ccccc4c3C)cc2s1 < 1 µM
4. CCN(CC)c1ccc(NC(=O)c2oc3ccccc3c2COC)cc1 < 1 µM
5. CCN(CC)c1ccc(NC(=O)c2oc3ccccc3c2OC)cc1 < 0.3 µM
6. CCc1c(C(=O)Nc2ccc3nc(C)oc3c2)oc2ccccc12 < 0.3 µM
7. CCN(CC)c1ccc(NC(=O)c2cc3ccccc3o2)cc1 < 1 µM
8. CCN(CC)c1ccc(NC(=O)c2oc3ccccc3c2C)cc1 < 0.3 µM

Continue with the compound presented below.
Sample Cc1c(C(=O)Nc2ccc3c(c2)OCCCO3)oc2ccccc12 ; IC50 observed: < 3 µM

###

- test_target: human Orexin-1 receptor (hOX1R) (Homo sapiens, UniProt O43613)
- Sequence (O43613 whole entry): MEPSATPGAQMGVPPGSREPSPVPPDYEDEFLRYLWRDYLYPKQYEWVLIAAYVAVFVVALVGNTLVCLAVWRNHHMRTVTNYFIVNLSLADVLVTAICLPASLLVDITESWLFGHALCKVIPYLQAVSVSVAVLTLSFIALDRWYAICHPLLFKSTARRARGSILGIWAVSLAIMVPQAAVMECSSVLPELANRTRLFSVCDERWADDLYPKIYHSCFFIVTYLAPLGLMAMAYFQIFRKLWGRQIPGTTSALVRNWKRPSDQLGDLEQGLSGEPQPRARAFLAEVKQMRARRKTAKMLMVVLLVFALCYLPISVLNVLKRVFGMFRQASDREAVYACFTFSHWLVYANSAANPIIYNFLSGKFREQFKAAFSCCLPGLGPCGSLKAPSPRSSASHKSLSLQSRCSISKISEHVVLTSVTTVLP
- assay_details: Ca2+-flux assay for IC50 determination in CHO-hOX1R cells (Orexin-A stimulated)
- settings: 5nM Orexin-A agonist, fluo-4 fluorescence, compounds 1.28nM to 20µM, triplicates, read-out: 0X1
- Protocol: A CHO-K1 cell line stably expressing human Orexin-1 receptor (hOX1R, coding sequence of AF041243) was obtained from Euroscreen/PerkinElmer (CHO-hOX1R, ES-330-C). […] CHO-hOX1R and CHO-hOX2R cells were seeded at a density of 7500 cells per well into black, 384 well Costar Cellbind plates and cultured overnight in the appropriate cell culture medium as described above without G418 selection. […] All compound concentrations were measured in triplicates. […] Detection of fluorescence was as described above.
pIC50: −log10 of the molar value.
quantity_measured: pIC50

1. Cc1nc2ccc(NC(=O)c3oc4ccccc4c3C)cc2o1 > 6.52
2. CCOc1ccc(NC(=O)c2oc3ccccc3c2C)cc1 > 5.52
3. Cc1c(C(=O)Nc2ccc3c(ccn3C)c2)oc2ccccc12 > 6.00
4. COc1ccc(NC(=O)c2oc3ccccc3c2C)cc1Cl > 5.52

Continue with the compound presented below.
Sample Cc1c(C(=O)Nc2ccc3c(c2)OCCO3)oc2ccccc12 ; pIC50 observed: > 5.52
